test system: Haemonchus contortus; assay: Efficacy against Haemonchus contortus in jirds; format: in vivo, jirds (Meriones unguiculatus); settings: sc, 72 h, read-out: % Reduction in H.
experimental readout: inhibition in vivo at 50 mg/kg (%)
Field: numeric (%). Do not append units.

1. O=C(CCN1CCC(c2ccc(Oc3ccccc3)cc2)CC1)N1CCC(Oc2ccc([N+](=O)[O-])c(C(F)(F)F)c2)CC1 [Example 45]
94
2. O=C(CCCN1CCN(c2ccc(C(F)(F)F)cc2)CC1)N1CCC(Nc2ccc(Cl)c(SC(F)(F)F)c2)CC1 [Example 17]
96
3. CC(CN1CCN(c2ccc(Cl)cc2)CC1)C(=O)N1CCC(Nc2ccc(C#N)c(C(F)(F)F)c2)CC1 (stereo not shown) [Example 581]
10
4. CC(C)(C)c1ccc(N2CCN(CCCC(=O)N3CCC(Nc4ccc(C#N)c(Cl)c4)CC3)CC2)cc1 [Example 322]
73

q: Return reported inhibition in vivo at 50 mg/kg; argument: O=C(CCN1CCC(c2ccc(C(F)(F)F)cc2)CC1)N1CCC(Nc2ccc([N+](=O)[O-])c(C(F)(F)F)c2)CC1 [Example 14]
a: 99

q: Continue with CCCc1ccc(C2CCN(CCC(=O)N3CCC(Oc4ccc([N+](=O)[O-])c(OCC)c4)CC3)CC2)cc1 [Example 579]
a: 96

----------
test system: Haemonchus contortus; assay: Efficacy against Haemonchus contortus in jirds; format: in vivo, jirds (Meriones unguiculatus); conditions: po, 72 h, read-out: % Reduction in H.
Use Criterion met when the recorded inhibition in vivo at 10 mg/kg is no lower than 60%; use Criterion not met when it is lower.

# example entries with known answers
1. CC(C)(C)c1ccc(N2CCN(CCCC(=O)N3CCC(Nc4ccc([N+](=O)[O-])c(C(F)(F)F)c4)CC3)CC2)cc1
Criterion not met
2. O=C(CCN1CCN(c2ccc(C(F)(F)F)nc2)CC1)N1CCC(Nc2ccc([N+](=O)[O-])c(C(F)(F)F)c2)CC1
Criterion met
3. O=C(CCCN1CCN(c2ccc(C(F)(F)F)cn2)CC1)N1CCC(Nc2ccc([N+](=O)[O-])c(C(F)(F)F)c2)CC1
Criterion met
4. O=C(CCCN1CCN(c2ccc(C(F)(F)F)cc2)CC1)N1CCC(Nc2ccc([N+](=O)[O-])c(C(F)(F)F)c2)CC1
Criterion met
5. O=C(CCN1CCN(c2nnc(C(F)(F)F)s2)CC1)N1CCC(Nc2ccc([N+](=O)[O-])c(C(F)(F)F)c2)CC1
Criterion not met
6. O=C(CCCN1CCN(c2ccc(C(F)(F)F)cc2)CC1)N1CCC(Nc2ccc(SC(F)(F)F)cc2)CC1
Criterion met

Turning to the following molecule.
q: Evaluate O=C(CCCC1CCN(c2ccc(C(F)(F)F)cc2)CC1)N1CCC(Nc2ccc([N+](=O)[O-])c(C(F)(F)F)c2)CC1 : inhibition in vivo at 10 mg/kg at minimum 60%?
a: Criterion met

----------
tested on: A. galli (intestinal roundworm of chicken) larval stage 3; O. dentatum (nodular worm of swine) larval stages 3 and 4; test: Activity against Ascaridia galli and Oesophagostomum dentatum larvae in vitro (minimum effective concentration); format: cell-based; conditions: in vitro; one or more of A. galli L3, O. dentatum L3, L4; threshold 7 μM; read-out: MEC (minimum effective concentration) against one or more of the tested nematodes
experimental readout: minimal effective concentration

1. CC(C)COc1cc(OC2CCN(C(=O)CCN3CCN(c4ccc(Cl)cc4)CC3)CC2)ccc1[N+](=O)[O-] [Example 512]
< 7 µM
2. O=C(CCN1CCC(c2ccc(-c3ccccc3)cc2)CC1)N1CCC(Oc2ccc([N+](=O)[O-])c(C(F)(F)F)c2)CC1 [Example 442]
< 7 µM
3. CCOc1cc(NC2CCN(C(=O)CCN3CCN(c4ccc(OCc5ccccc5)cc4)CC3)CC2)ccc1[N+](=O)[O-] [Example 407]
< 7 µM

q: Return reported minimal effective concentration; argument: Cn1nnc(-c2ccc(NC3CCN(C(=O)CCN4CCN(c5ccc(C(C)(C)C)cc5)CC4)CC3)cc2)n1 [Example 444]
a: < 7 µM

q: Continue with CCCc1ccc(C2CCN(CCC(=O)N3CCC(Nc4ccc([N+](=O)[O-])c(OC)c4)CC3)CC2)cc1 [Example 379]
a: < 7 µM

q: Continue with COc1cc(OC2CCN(C(=O)CCN3CCN(c4ccc(C(F)(F)F)cc4)CC3)CC2)ccc1[N+](=O)[O-] [Example 479]
a: < 7 µM

q: Continue with O=C(CCN1CCN(c2ccccc2)CC1)N1CCC(Nc2ccc([N+](=O)[O-])c(C(F)(F)F)c2)CC1 [Example 169]
a: < 7 µM

q: Continue with O=C(CCCC1CCN(c2ccc(Cl)cc2)CC1)N1CC[C@H](Nc2ccc([N+](=O)[O-])c(C(F)(F)F)c2)C1 [Example 734]
a: < 7 µM

q: Continue with O=C(CCN1CCN(c2ccc(F)cc2F)CC1)N1CCC(Nc2ccc([N+](=O)[O-])c(C(F)(F)F)c2)CC1 [Example 370]
a: < 7 µM

q: Continue with CCOc1cc(NC2CCN(C(=O)CCN3CCN(c4ccc(Cl)cc4F)CC3)CC2)ccc1[N+](=O)[O-] [Example 410]
a: < 7 µM

q: Continue with CC(C)COc1cc(OC2CCN(C(=O)CCN3CCN(c4ccc(Cl)cc4F)CC3)CC2)ccc1[N+](=O)[O-] [Example 519]
a: < 7 µM

q: Continue with COc1cc(NC2CCN(C(=O)CCN3CCN(c4ccc(Cl)cc4)CC3)CC2)ccc1[N+](=O)[O-] [Example 385]
a: < 7 µM

----------
system: Haemonchus contortus; test: Efficacy against Haemonchus contortus in jirds; assay type: in vivo, jirds (Meriones unguiculatus); conditions: sc, 72 h, read-out: % Reduction in H.
experimental readout: inhibition in vivo at 50 mg/kg (%)
Field: numeric (%). Do not append units.

Past entries and their recorded results:
1) N#Cc1ccc(NC2CCN(C(=O)CCN3CCN(c4ccc(Cl)cc4)CC3)CC2)cc1C(F)(F)F
97
2) CC(C)COc1ccc(N2CCN(CCC(=O)N3CCC(Nc4ccc([N+](=O)[O-])c(C(F)(F)F)c4)CC3)CC2)cc1
91
3) O=C(CCCN1CCN(c2ccc(C(F)(F)F)cc2)CC1)N1CCC(Nc2ccc(S(=O)(=O)c3ccc(F)cc3)cc2)CC1
69
4) COc1cc(NC2CCN(C(=O)CCN3CCN(c4ccc(OCc5ccc(C(F)(F)F)cc5)cc4)CC3)CC2)ccc1[N+](=O)[O-]
74
5) O=C(CCN1CCC(OCc2ccc(C(F)(F)F)cc2)CC1)N1CCC(Nc2ccc([N+](=O)[O-])c(C(F)(F)F)c2)CC1
84
6) O=C(COC1CCN(c2ccc(C(F)(F)F)cc2)CC1)N1CCC(Nc2ccc([N+](=O)[O-])c(C(F)(F)F)c2)CC1
100
7) CC(CN1CCN(c2ccc(C(F)(F)F)cc2)CC1)C(=O)N1CCC(Nc2ccc([N+](=O)[O-])c(C(F)(F)F)c2)CC1 (stereo not shown)
100
8) O=C(CCN1CCN(c2ccc(OCc3ccccc3)cc2)CC1)N1CCC(Oc2ccc([N+](=O)[O-])c(C(F)(F)F)c2)CC1
59
9) O=C(CCCN1CCN(c2ccc(C(F)(F)F)cc2)CC1)N1CCC(Nc2ccc(C(F)(F)F)cn2)CC1
63
10) Cn1nnc(-c2ccc(NC3CCN(C(=O)CCCN4CCN(c5ccc(C(F)(F)F)cc5)CC4)CC3)cc2)n1
38

q: Return reported inhibition in vivo at 50 mg/kg; argument: CSc1ccc(NC2CCN(C(=O)CCCN3CCN(c4ccc(C(F)(F)F)cc4)CC3)CC2)cc1C(F)(F)F
a: 99

q: Continue with CS(=O)(=O)c1ccc(NC2CCN(C(=O)CCCN3CCN(c4ccc(C(F)(F)F)cc4)CC3)CC2)cc1C(F)(F)F
a: 69

q: Continue with CC(CN1CCN(c2ccc(Cl)cc2)CC1)C(=O)N1CCC(Nc2ccc([N+](=O)[O-])c(C(F)(F)F)c2)CC1 (stereo not shown)
a: 100

q: Continue with Cc1cc(NC2CCN(C(=O)CCCN3CCN(c4ccc(C(F)(F)F)cc4)CC3)CC2)ncc1[N+](=O)[O-]
a: 35

----------
Let's look at some molecules and their measured inhibition in vivo at 50 mg/kg.
tested on: Haemonchus contortus; assay: Efficacy against Haemonchus contortus in jirds; assay type: in vivo, jirds (Meriones unguiculatus); details: sc, 72 h, read-out: % Reduction in H.
Field: numeric (%). Do not append units.

Past entries and their recorded results:
1) CC(C)(C)c1ccc(N2CCN(CCC(=O)N3CCC(Nc4ccc(C#N)c(C(F)(F)F)c4)CC3)CC2)cc1
90
2) N#Cc1cccc(NC2CCN(C(=O)CCCN3CCN(c4ccc(C(F)(F)F)cc4)CC3)CC2)c1
98
3) O=C(CCN1CCN(c2ccc(OCc3ccccc3)cc2)CC1)N1CCC(Nc2ccc([N+](=O)[O-])c(C(F)(F)F)c2)CC1
92
4) CC(C)(C)c1ccc(N2CCN(CCC(=O)N3CCC(Nc4ccc([N+](=O)[O-])c(C(F)(F)F)c4)CC3)CC2)cc1
93

Lab note: next molecule to report on.
q: Return reported inhibition in vivo at 50 mg/kg; argument: O=C(CCCN1CCN(c2ccc(C(F)(F)F)cc2)CC1)N1CCC(Nc2ccc(OC(F)(F)F)cc2)CC1
a: 58
